- system: rPfGSK-3 (Plasmodium falciparum)
- Sequence (O77344 entry or part of it): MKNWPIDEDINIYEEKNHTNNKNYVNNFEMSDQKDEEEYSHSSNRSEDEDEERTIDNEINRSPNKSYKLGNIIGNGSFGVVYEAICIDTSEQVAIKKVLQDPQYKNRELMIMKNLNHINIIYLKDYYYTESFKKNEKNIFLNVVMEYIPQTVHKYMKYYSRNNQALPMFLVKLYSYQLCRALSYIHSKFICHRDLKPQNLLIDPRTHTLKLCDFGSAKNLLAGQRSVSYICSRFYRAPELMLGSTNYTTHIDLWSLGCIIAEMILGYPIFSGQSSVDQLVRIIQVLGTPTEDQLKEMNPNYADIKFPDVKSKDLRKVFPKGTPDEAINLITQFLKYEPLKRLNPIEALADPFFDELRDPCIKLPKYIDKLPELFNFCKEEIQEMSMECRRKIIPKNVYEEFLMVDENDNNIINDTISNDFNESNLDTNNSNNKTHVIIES
- assayComment: KinaseGlo Plus assay for inhibition of PfGSK-3
- Format: biochemical
- conditionSummary: 10 µM; remaining activity, calculated on DMSO controls; Table 3; read-out: rPfGSK-3 Activity at 10 µM [%]
Consider the following compounds; for each one, report its remaining activity at 10 µM.
# output: bare number, implied unit %

Bench note: what remaining activity at 10 µM did Cc1cccc(-c2c(C(=O)O)c(C)nc3sc(C(=O)Nc4ccc(Cl)cc4)c(N)c23)c1 [Compound 17i] show?
106

Item under review: CN(CCNC(=O)OC(C)(C)C)c1ccc(-c2c(C#N)c(N)nc3sc(C(=O)Nc4ccccc4Cl)c(N)c23)c(Cl)c1 . Reported remaining activity at 10 µM?
95

# remaining activity at 10 µM lookup, item N#Cc1c(N)nc2sc(C(=O)Nc3cccc(Cl)c3)c(N)c2c1-c1ccc(N2CCOCC2)cc1Cl
108

Request the reported remaining activity at 10 µM associated with Cc1nc2sc(C(=O)Nc3ccc(Cl)cc3)c(N)c2c(-c2ccccc2)c1C(=O)O [Compound 17j]
108

Look up remaining activity at 10 µM: Cc1cccc(-c2c(C#N)c(N)nc3sc(C(=O)Nc4ccc(Cl)cc4)c(N)c23)c1
106

Quick one: remaining activity at 10 µM of CN(C)CCN(C)c1ccc(-c2c(C#N)c(N)nc3sc(C(=O)Nc4ccc(F)cc4)c(N)c23)c(Cl)c1 ?
112

Quick check: remaining activity at 10 µM of CC(C)(C)OC(=O)N1CCN(c2ccc(-c3c4c(nc5sc(C(=O)Nc6ccc(Cl)cc6)c(N)c35)CCC4)c(Cl)c2)CC1 [Compound 17a] ?
102

Record request: remaining activity at 10 µM value, item N#Cc1c(N)nc2sc(C(=O)Nc3ccc(Cl)cc3)c(N)c2c1-c1cccc(F)c1
104

What remaining activity at 10 µM value was documented for this compound, CN(C)CCN(C)c1ccc(-c2c(C#N)c(N)nc3sc(C(=O)Nc4cccc(Cl)c4)c(N)c23)c(Cl)c1 ?
107

Data request, read-out remaining activity at 10 µM, for N#Cc1c(N)nc2sc(C(=O)Nc3ccc(Cl)cc3)c(N)c2c1-c1cccc(Cl)c1
80.3

Name the reported remaining activity at 10 µM value associated with the compound Cc1cccc(-c2c3c(nc4sc(C(=O)Nc5ccc(Cl)cc5)c(N)c24)CCC3)c1 [Compound 17f]
103

Give the measured remaining activity at 10 µM of N#Cc1c(N)nc2sc(C(=O)Nc3ccccc3Cl)c(N)c2c1-c1ccc(N2CCOCC2)cc1Cl .
110

I'd like to know its remaining activity at 10 µM. The compound in question is Cc1nc2sc(C(=O)Nc3ccc(Cl)cc3)c(N)c2c(-c2ccccc2)c1C(=O)OC(C)(C)C [Compound 17g]
101

Need remaining activity at 10 µM, item Nc1c(C(=O)Nc2ccc(Cl)cc2)sc2nc3c(c(-c4ccccc4)c12)CCCC3 [Compound 17d]
106

Which remaining activity at 10 µM value belongs to CN(CCN)c1ccc(-c2c(C#N)c(N)nc3sc(C(=O)Nc4cccc(Cl)c4)c(N)c23)c(Cl)c1 ?
101

If you can, please state the reported remaining activity at 10 µM value of CN(CCNC(=O)OC(C)(C)C)c1ccc(-c2c(C#N)c(N)nc3sc(C(=O)Nc4ccc(F)cc4)c(N)c23)c(Cl)c1 .
85.7

# input compound: N#Cc1c(N)nc2sc(C(=O)Nc3ccc(F)cc3)c(N)c2c1-c1ccc(N2CCCC2)cc1Cl ; wanted: its remaining activity at 10 µM
101

# query: remaining activity at 10 µM of entry Cc1cccc(-c2c(C#N)c(N)nc3sc(C(=O)NCCC4CC4)c(N)c23)c1
60

What value of measured remaining activity at 10 µM is listed for N#Cc1c(N)nc2sc(C(=O)Nc3ccc(Cl)cc3)c(N)c2c1-c1ccc(N2CCOCC2)cc1Cl ?
91.8

Item N#Cc1c(N)nc2sc(C(=O)Nc3cccc(Cl)c3)c(N)c2c1-c1ccc(N2CCCC2)cc1Cl has what recorded remaining activity at 10 µM?
113
